Tested on: BxPC-3 (human pancreatic cancer in situ)
Experiment: In vitro inhibitory effect against human tumor cells (MTT or SRB)
Format: cell-based
Settings: BXPC-3, 72 h, BxPC-3, test method printed MTT (head: SRB), With addition of βGU (1 µg/well), 3 days
Procedure: Cells were cultured with 5% CO2 at 37°C and saturated humidity until they reached a logarithmic growth phase (usually adherent cells were nearly fully confluent). After removing adherent cells by trypsin/EDTA digestion, the cells were collected for subsequent experiments. […]
reported_endpoint: IC50 (nM)
// units = nM; emit number, no label

INSERT INTO assay_data (molecule, reported_endpoint, result_unit, quantitative_result) VALUES
  ('CC[C@H](C)[C@@H]([C@@H](CC(=O)N1CCC[C@H]1[C@H](OC)[C@@H](C)C(=O)N[C@H](C)[C@@H](OCc1ccc(O[C@@H]2O[C@H](C(=O)[O-])[C@@H](O)[C@H](O)[C@H]2O)cc1OCc1cn(CCCCCC(=O)Nc2ccc(-c3ccc(/N=N/c4ccc5c(S(=O)(=O)[O-])cc(S(=O)(=O)[O-])c(N)c5c4O)c(C)c3)cc2C)nn1)c1ccccc1)OC)N(C)C(=O)[C@@H](NC(=O)[C@H](C(C)C)N(C)C)C(C)C.[Na+].[Na+].[Na+]', 'IC50', 'nM', 3.9),
  ('CC[C@H](C)[C@@H]([C@@H](CC(=O)N1CCC[C@H]1[C@H](OC)[C@@H](C)C(=O)N[C@H](C)[C@@H](O)c1ccccc1)OC)N(C)C(=O)[C@@H](NC(=O)[C@H](C(C)C)[N+](C)(C)Cc1ccc(O[C@@H]2O[C@H](C(=O)[O-])[C@@H](O)[C@H](O)[C@H]2O)cc1OCc1cn(CCOCCC(=O)Nc2ccc(-c3ccc(/N=N/c4ccc5c(S(=O)(=O)[O-])cc(S(=O)(=O)[O-])c(N)c5c4O)c(C)c3)cc2C)nn1)C(C)C.[Na+].[Na+]', 'IC50', 'nM', 0.86),
  ('CC[C@H](C)[C@@H]([C@@H](CC(=O)N1CCC[C@H]1[C@H](OC)[C@@H](C)C(=O)N[C@H](C)[C@@H](O)c1ccccc1)OC)N(C)C(=O)[C@@H](NC(=O)[C@H](C(C)C)N(C)Cc1ccc(O[C@@H]2O[C@H](C(=O)O)[C@@H](O)[C@H](O)[C@H]2O)cc1OCc1cn(CCCCCC(=O)Nc2ccc(-c3ccc(/N=N/c4ccc5c(S(=O)(=O)O)cc(S(=O)(=O)O)c(N)c5c4O)c(C)c3)cc2C)nn1)C(C)C', 'IC50', 'nM', 9.7),
  ('CC[C@H](C)[C@@H]([C@@H](CC(=O)N1CCC[C@H]1[C@H](OC)[C@@H](C)C(=O)N[C@H](C)[C@@H](O)c1ccccc1)OC)N(C)C(=O)[C@@H](NC(=O)[C@H](C(C)C)[N+](C)(C)Cc1ccc(O[C@@H]2O[C@H](C(=O)[O-])[C@@H](O)[C@H](O)[C@H]2O)cc1OCc1cn(CCCOCC(=O)Nc2ccc(-c3ccc(/N=N/c4ccc5c(S(=O)(=O)[O-])cc(S(=O)(=O)[O-])c(N)c5c4O)c(C)c3)cc2C)nn1)C(C)C.[Na+].[Na+]', 'IC50', 'nM', 0.71);

Exercise: Which IC50 value belongs to CC[C@H](C)[C@@H]([C@@H](CC(=O)N1CCC[C@H]1[C@H](OC)[C@@H](C)C(=O)N[C@H](C)[C@@H](O)c1ccccc1)OC)N(C)C(=O)[C@@H](NC(=O)[C@H](C(C)C)[N+](C)(CC)Cc1ccc(O[C@@H]2O[C@H](C(=O)[O-])[C@@H](O)[C@H](O)[C@H]2O)cc1OCc1cn(CCCOCC(=O)Nc2ccc(-c3ccc(/N=N/c4ccc5c(S(=O)(=O)[O-])cc(S(=O)(=O)[O-])c(N)c5c4O)c(C)c3)cc2C)nn1)C(C)C.[Na+].[Na+] (some centres unmarked) ?
Solution: 0.4

----------
System: human non-small cell lung cancer NCI-H1975
Test: Biological Example 7: in vivo xenograft model of human non-small cell lung cancer NCI-H1975
Parameters: species or system Balb/c-nu nude mice
Conditions: nude mice, 0.8 mg/kg i.v. qw×3, Start
reported_endpoint: Body weight (g, x±S.D.) Start (g)
// units = g; emit number, no label

In the examples that follow, each entry is paired with its recorded Body weight (g, x±S.D.) Start.
INSERT INTO assay_data (molecule, reported_endpoint, quantitative_result) VALUES
  ('CC[C@H](C)[C@@H]([C@@H](CC(=O)N1CCC[C@H]1[C@H](OC)[C@@H](C)C(=O)N[C@H](C)[C@@H](O)c1ccccc1)OC)N(C)C(=O)[C@@H](NC(=O)[C@H](C(C)C)[N+](C)(C)Cc1ccc(O[C@@H]2O[C@H](C(=O)[O-])[C@@H](O)[C@H](O)[C@H]2O)cc1OCc1cn(CCCOCC(=O)Nc2ccc(-c3ccc(/N=N/c4ccc5c(S(=O)(=O)[O-])cc(S(=O)(=O)[O-])c(N)c5c4O)c(C)c3)cc2C)nn1)C(C)C.[Na+].[Na+]', 'Body weight (g, x±S.D.) Start', 23.7),
  ('CC[C@H](C)[C@@H]([C@@H](CC(=O)N1CCC[C@H]1[C@H](OC)[C@@H](C)C(=O)N[C@H](C)[C@@H](O)c1ccccc1)OC)N(C)C(=O)[C@@H](NC(=O)[C@H](C(C)C)[N+](C)(CC)Cc1ccc(O[C@@H]2O[C@H](C(=O)[O-])[C@@H](O)[C@H](O)[C@H]2O)cc1OCc1cn(CCCOCC(=O)Nc2ccc(-c3ccc(/N=N/c4ccc5c(S(=O)(=O)[O-])cc(S(=O)(=O)[O-])c(N)c5c4O)c(C)c3)cc2C)nn1)C(C)C.[Na+].[Na+] (stereo partly shown)', 'Body weight (g, x±S.D.) Start', 25.3),
  ('CC[C@H](C)[C@@H]([C@@H](CC(=O)N1CCC[C@H]1[C@H](OC)[C@@H](C)C(=O)N[C@H](C)[C@@H](O)c1ccccc1)OC)N(C)C(=O)[C@@H](NC(=O)[C@H](C(C)C)[N+](C)(CC)Cc1ccc(O[C@@H]2O[C@H](C(=O)[O-])[C@@H](O)[C@H](O)[C@H]2O)cc1OCc1cn(CCCCCC(=O)Nc2ccc(-c3ccc(/N=N/c4ccc5c(S(=O)(=O)[O-])cc(S(=O)(=O)[O-])c(N)c5c4O)c(C)c3)cc2C)nn1)C(C)C.[Na+].[Na+] (stereo partly shown)', 'Body weight (g, x±S.D.) Start', 24.1);

Alright, here's another molecule for you.
Exercise: Which Body weight (g, x±S.D.) Start value belongs to CC[C@H](C)[C@@H]([C@@H](CC(=O)N1CCC[C@H]1[C@H](OC)[C@@H](C)C(=O)N[C@H](C)[C@@H](O)c1ccccc1)OC)N(C)C(=O)[C@@H](NC(=O)[C@H](C(C)C)[N+](C)(C)Cc1ccc(O[C@@H]2O[C@H](C(=O)[O-])[C@@H](O)[C@H](O)[C@H]2O)cc1OCc1cn(CCOCCC(=O)Nc2ccc(-c3ccc(/N=N/c4ccc5c(S(=O)(=O)[O-])cc(S(=O)(=O)[O-])c(N)c5c4O)c(C)c3)cc2C)nn1)C(C)C.[Na+].[Na+] ?
Solution: 26.1

----------
Collected Body weight (g, x±S.D.) Start values appear next to each entry.
Tested on: human ovarian cancer SK-OV-3
Assay: Biological Example 5: in vivo xenograft model of human ovarian cancer SK-OV-3
Parameters: species or system Balb/c-nu nude mice
Settings: SK-OV-3 xenograft, nude mice, 0.8 mg/kg i.v. qw×3; Start
// units = g; emit number, no label

INSERT INTO measurements (molecule, quantitative_result) VALUES
  ('CC[C@H](C)[C@@H]([C@@H](CC(=O)N1CCC[C@H]1[C@H](OC)[C@@H](C)C(=O)N[C@H](C)[C@@H](O)c1ccccc1)OC)N(C)C(=O)[C@@H](NC(=O)[C@H](C(C)C)[N+](C)(C)Cc1ccc(O[C@@H]2O[C@H](C(=O)[O-])[C@@H](O)[C@H](O)[C@H]2O)cc1OCc1cn(CCCOCC(=O)Nc2ccc(-c3ccc(/N=N/c4ccc5c(S(=O)(=O)[O-])cc(S(=O)(=O)[O-])c(N)c5c4O)c(C)c3)cc2C)nn1)C(C)C.[Na+].[Na+]', 23.7);

Exercise: Which Body weight (g, x±S.D.) Start value belongs to CC[C@H](C)[C@@H]([C@@H](CC(=O)N1CCC[C@H]1[C@H](OC)[C@@H](C)C(=O)N[C@H](C)[C@@H](O)c1ccccc1)OC)N(C)C(=O)[C@@H](NC(=O)[C@H](C(C)C)[N+](C)(C)Cc1ccc(O[C@@H]2O[C@H](C(=O)[O-])[C@@H](O)[C@H](O)[C@H]2O)cc1OCc1cn(CCOCCC(=O)Nc2ccc(-c3ccc(/N=N/c4ccc5c(S(=O)(=O)[O-])cc(S(=O)(=O)[O-])c(N)c5c4O)c(C)c3)cc2C)nn1)C(C)C.[Na+].[Na+] ?
Solution: 24.5

Exercise: Try the molecule CC[C@H](C)[C@@H]([C@@H](CC(=O)N1CCC[C@H]1[C@H](OC)[C@@H](C)C(=O)N[C@H](C)[C@@H](O)c1ccccc1)OC)N(C)C(=O)[C@@H](NC(=O)[C@H](C(C)C)[N+](C)(CC)Cc1ccc(O[C@@H]2O[C@H](C(=O)[O-])[C@@H](O)[C@H](O)[C@H]2O)cc1OCc1cn(CCCOCC(=O)Nc2ccc(-c3ccc(/N=N/c4ccc5c(S(=O)(=O)[O-])cc(S(=O)(=O)[O-])c(N)c5c4O)c(C)c3)cc2C)nn1)C(C)C.[Na+].[Na+] (stereo partly drawn)
Solution: 24.4
